TEST_PROTOCOL: NCI Yeast Anticancer Drug Screen. Data for the mgt1 strain (AID 153)
PARTICULARS: S. cerevisiae mgt1 mutant growth inhibition; at 33.0 µM; hits give high values
Method: Growth inhibition of yeast strains with defined genetic alterations is measured as a screen for potential anti-cancer activity. Selected strains with alterations in DNA damage repair or cell cycle control were exposed to compounds and growth inhibition was measured relative to vehicle treated controls. The strain used in this assay is mgt1
The panel holds about 79,000 compounds, 15% with a hit somewhere; the sample as a whole holds those more often.
Criterion: growth inhibition meeting or surpassing 30%. Met: Fulfilled. Not met: Not fulfilled.

Prompt line: Could you tell me if the measured growth inhibition of `Cc1cnccc1N=Nc1ccc(N(C)C)cc1` reaches 30% or more?
Response line: Fulfilled

Prompt line: Try `c1cc(Nc2ccc3c(c2)OCO3)c2cc(C3CCCCC3)ccc2n1` next.
Response line: Not fulfilled

Prompt line: Try `CC[C@]1(O)C[C@H]2CN(CCc3c([nH]c4ccccc34)[C@@](C(=O)OC)(c3cc4c(cc3OC)N(C)[C@H]3[C@@](O)(C(=O)OC)[C@H](OC(C)=O)[C@]5(CC)C=CCN6CC[C@]43[C@@H]65)C2)C1` next.
Response line: Not fulfilled

Prompt line: Try COc1ccc(/C(=N/O)c2ccccc2C2=Nc3ccccc3C(NCc3ccccc3)O2)cc1C (stereo not given) next.
Response line: Fulfilled

Prompt line: Try `CC(=O)O/N=C/c1c2ccccc2cc2ccccc12` next.
Response line: Not fulfilled

Prompt line: Try `Nc1ccc2ncc(Nc3ccc(Cl)c(Cl)c3)nc2c1` next.
Response line: Fulfilled

Next:
Prompt line: Could you tell me if the measured growth inhibition of `N=c1oc2ccccc2cc1-c1nc2ccccc2[nH]1` reaches 30% or more?
Response line: Fulfilled

Prompt line: Try CC1C=CN(N(C)C)C2=C1C(=O)c1cnccc1C2=O (stereo not given) next.
Response line: Fulfilled

Prompt line: Try `O=[N+]([O-])c1ccc2nnnn2c1` next.
Response line: Not fulfilled

Prompt line: Try `Nc1c([N+](=O)[O-])cc2c3c(cccc13)CC2` next.
Response line: Not fulfilled
